Target: ficin
Conditions: read-out: inhibition constant (KI) of PBO on the enzyme ficin; Dixon plot; substrate CBZ 1.5×10^−4 M and 6×10^−5 M; Wo 25; HEPES pH 7.1; 30° C.
REPORTED_METRIC: Ki (µM)
Just the number in µM, nothing appended.

Hello, please tell me recorded Ki for this one: CCCCOCCOCCOCc1cc2c(cc1CCC)OCO2
450

---

Biological target: bromelain (Ananas comosus, UniProt P14518)
Sequence (P14518 whole entry): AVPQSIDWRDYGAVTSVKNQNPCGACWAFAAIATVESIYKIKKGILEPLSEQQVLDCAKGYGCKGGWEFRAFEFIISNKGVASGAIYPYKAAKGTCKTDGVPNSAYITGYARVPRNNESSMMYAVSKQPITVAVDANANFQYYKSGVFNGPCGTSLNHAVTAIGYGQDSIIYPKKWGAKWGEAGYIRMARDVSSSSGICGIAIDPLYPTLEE
REPORTED_METRIC: Ki (µM)
Just the number in µM, nothing appended.

Hello, please tell me recorded Ki for this one: CCCCOCCOCCOCc1cc2c(cc1CCC)OCO2
100
